# credit: patent US20230365675A1

Consider the following binders and their measured FACS binding data readings.
- EXPERIMENTAL_SYSTEM: Mutant CD33-GFP M14 (E170R) on 293FT cells (UniProt P20138)
- Sequence (P20138 18-364 E170R): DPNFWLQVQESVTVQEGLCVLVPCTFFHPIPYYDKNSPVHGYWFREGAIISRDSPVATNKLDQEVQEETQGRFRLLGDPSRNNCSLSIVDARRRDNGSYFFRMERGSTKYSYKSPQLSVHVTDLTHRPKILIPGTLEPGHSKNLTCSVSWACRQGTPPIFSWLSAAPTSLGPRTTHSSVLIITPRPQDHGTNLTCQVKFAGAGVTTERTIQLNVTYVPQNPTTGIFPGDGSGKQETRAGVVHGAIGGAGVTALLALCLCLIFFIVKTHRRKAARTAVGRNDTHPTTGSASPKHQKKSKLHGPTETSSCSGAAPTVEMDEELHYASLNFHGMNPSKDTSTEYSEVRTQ
- MEASUREMENT_PROTOCOL: FACS, mutant CD33-GFP on 293FT cells
OBSERVATION_TYPE: FACS binding data

1) sdCD33_2 (VHH) VHH: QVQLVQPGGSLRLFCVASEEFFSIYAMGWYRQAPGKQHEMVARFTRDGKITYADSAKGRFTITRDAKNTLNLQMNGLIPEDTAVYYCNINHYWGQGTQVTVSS = 98.2
2) sdCD33_5 (VHH, sdAb from a naive llama phage library; also called 413; sdAb413) VHH: QVQLQESGGGLVQPGGSLRLSCAASGSVFSIYAMAWYRQAPGKQRELVAVITSGGATNYADSVKGRFTISRDIAKKTLYLQMNTLKPEDTAVYYCYAHLLIQPFDRFYDYWGQGTQVTVSS = 98.2
3) sdCD33_10 (VHH) VHH: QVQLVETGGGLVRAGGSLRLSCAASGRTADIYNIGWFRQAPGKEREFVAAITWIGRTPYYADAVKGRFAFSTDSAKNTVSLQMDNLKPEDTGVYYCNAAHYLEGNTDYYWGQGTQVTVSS = 98.4
4) sdCD33_6 (VHH, sdAb from a naive llama phage library; also called 416; sdAb416) VHH: EVQLVESGGGLVQPRGSLRLSCVVSGSMSSIYSMSWYRQPPGKQRELVAHITTTGTTNYIDSVKGRFTISIDNDINVIYLQMNTLKPEDTAVYYCNAGLKAGPGPRLDYWGLGTQVTVSS = 99
5) sdCD33_4 (VHH) VHH: QVKLEESGGGSVQAGESLRLSCTASGITFRDYDIDWYRQAPGKEREWLATITPSGTTHYPDSVKGRATISRDSAKNTVYLQMNSLKPEDTARYECNTLAYWGSGTQVTVSS = 98.8
6) sdCD33_8 (VHH, sdAb from a naive llama phage library; also called 424; sdAb424) VHH: QVQLVESGGGLVQAGGSLRLSCAASGGAFSTYTMGWFRQAPGKEREFVAAIAWTGTHTYYSDSVKGRFTISRDNDKNTVFLQMNSLKPEDTAVYYCAQASSRYRAVTDSLSENHWGPGTQVTVST = 98.8
7) sdCD33_9 (VHH, sdAb from a naive llama phage library; also called 426; sdAb426) VHH: QVKLEESGGGLVRAGGSLRLSCAASGGTFSTYAMAWFRQAPGKEREFVAAITWGGGSTYYEDSVKGRFTISRDNAKNTGVLQMNNLDVDDTAVYYCYAFGRSRAGDANGDYWGQGTQVTVSS = 99.2
8) sdCD33_7 (VHH, sdAb from a naive llama phage library; also called 420; sdAb420) VHH: EVQLVESGGGLVQPGGSLRLSCVASGFTFKDYGMTWVRQAPGKALEWVSDINSAGDGIYYSDSVKGRFTISRDDSKGTLYLQMNSLTPEDTAIYYCAAERQRAGDVKRSLAPITAHIWGQGTQVTVSS = 98.7
9) sdCD33_3 (VHH) VHH: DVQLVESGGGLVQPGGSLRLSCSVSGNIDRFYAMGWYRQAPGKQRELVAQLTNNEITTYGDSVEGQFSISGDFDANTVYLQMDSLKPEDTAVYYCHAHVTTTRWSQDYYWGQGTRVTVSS = 98.7
10) sdCD33_11 (VHH, sdAb from a naive llama phage library; also called 430; sdAb430) VHH: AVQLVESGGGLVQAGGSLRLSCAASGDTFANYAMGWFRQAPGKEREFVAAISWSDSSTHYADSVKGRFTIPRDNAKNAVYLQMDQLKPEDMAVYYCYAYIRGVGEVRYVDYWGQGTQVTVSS = 97.4
